The compounds listed here are annotated with their AC50.
tested on: HMC 1-8 low-A1 cells, caspase-3/7 luminescence, 3 h; assay: caspase activation in low-A1 HMC 1-8 cells, dose response, counter-screen for A1 inhibitor project, cell-based, caspase luminescence (AID 449755)
Results filed as inconclusive are left out. Active and inactive are the calls of the source.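 The calls were made as follows: active = compounds raising caspase signal whose fitted AC50 is at most ten times the top tested dose; inconclusive = flat fit with 30 to 70% activity, or failed fit; inactive = the rest.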

compound | tested system | AC50
COc1ccc(NC(=O)CSc2nc3ccc(Nc4nc(N5CCOCC5)nc(N5CCOCC5)n4)cc3s2)cc1 | HMC 1-8 low-A1 cells, caspase-3/7 luminescence, 3 h | > 35 µM (inactive)
CCOC(=O)/C(=C\c1cccnc1)C(=O)c1cc(C(C)=O)c(Nc2ccccc2)s1 | HMC 1-8 low-A1 cells, caspase-3/7 luminescence, 3 h | > 35 µM (inactive)
O=C(Nc1ccc2oc(-c3ccccc3)nc2c1)c1ccccc1F | HMC 1-8 low-A1 cells, caspase-3/7 luminescence, 3 h | > 35 µM (inactive)
COc1ccccc1CCNC(C)CCc1ccc(O)cc1 (stereo not drawn) | HMC 1-8 low-A1 cells, caspase-3/7 luminescence, 3 h | > 35 µM (inactive)
CN1C2CCC1/C(=C/c1ccccn1)C(=O)/C2=C\c1ccccn1 | HMC 1-8 low-A1 cells, caspase-3/7 luminescence, 3 h | > 35 µM (inactive)
CSC[C@@H]1NC(=S)N(c2ccc(C)cc2)C1=O | HMC 1-8 low-A1 cells, caspase-3/7 luminescence, 3 h | > 35 µM (inactive)
O=C(Nc1ccc2oc(-c3ccccc3Cl)nc2c1)c1cncc(Br)c1 | HMC 1-8 low-A1 cells, caspase-3/7 luminescence, 3 h | > 35 µM (inactive)
C=C1/C=C(\C)[C@](C)(O)C[C@H](O)CC(=O)[C@H](O)[C@@H](O)[C@H](C)C[C@H](C)OC(=O)/C(C)=C/CC/C=C/[C@@H]2O[C@H]2C[C@H](C)C1 | HMC 1-8 low-A1 cells, caspase-3/7 luminescence, 3 h | > 35 µM (inactive)
Cc1ccc(C2(c3ccc(C)cc3)CC2C(=O)Nc2ccc([N+](=O)[O-])cc2O)cc1 (stereo not drawn) | HMC 1-8 low-A1 cells, caspase-3/7 luminescence, 3 h | > 35 µM (inactive)
COC(=O)CSc1nc(N)c2c3c(sc2n1)C(c1ccccc1)SC(c1ccccc1)C3 (stereo not drawn) | HMC 1-8 low-A1 cells, caspase-3/7 luminescence, 3 h | > 35 µM (inactive)
CC(C)(C)C1CCc2onc(C(=O)Nc3cccc(O)c3)c2C1 (stereo not drawn) | HMC 1-8 low-A1 cells, caspase-3/7 luminescence, 3 h | > 35 µM (inactive)
CCCCN1C(=O)/C(=C2/Sc3ccccc3N2C)S/C1=N\c1ncn[nH]1 | HMC 1-8 low-A1 cells, caspase-3/7 luminescence, 3 h | > 35 µM (inactive)
COc1cc(CN2CCN(c3cc(C)ccc3C)CC2)ccc1O | HMC 1-8 low-A1 cells, caspase-3/7 luminescence, 3 h | > 35 µM (inactive)

----------
system: HMC 1-8 low-A1 cells, caspase-3/7 luminescence, 3 h; assay: caspase activation in low-A1 HMC 1-8 cells, dose response, counter-screen for A1 inhibitor project, cell-based, caspase luminescence (AID 449755)
Results filed as inconclusive are left out. Activity calls are given as the source filed them.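 Rule for the calls: active = compounds raising caspase signal whose fitted AC50 is at most ten times the top tested dose; inconclusive = flat fit with 30 to 70% activity, or failed fit; inactive = the rest.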
Labels: active, inactive

compound | assigned class
O=C(Cn1c(C(F)(F)F)nc2ccccc21)N=Nc1c(O)[nH]c2ccc(Br)cc12 | active
COc1ccc(C[C@H]2NC[C@H](O)[C@H]2OC(C)=O)cc1 | active
CCOC(=O)/C=c1\s/c(=C\c2ccc(C(=O)OC)cc2)c(=O)n1CC(=O)Nc1ccccc1 | inactive
CCC(Sc1nc2cc3c(cc2c(=O)n1Cc1ccco1)OCO3)C(=O)Nc1cccc(OC)c1 (stereo unspecified) | inactive
Cc1ccc(C(=O)/C=C/C(=O)c2ccc(C)cc2)cc1 | inactive
Cc1cccc(NC(=O)/C(C#N)=C/c2cn(CC(=O)NCc3ccco3)c3ccccc23)c1 | inactive
CCCc1ccc(OCc2ccc(C(=O)N/N=C/c3cccc([N+](=O)[O-])c3)o2)c(OC)c1 | active
CC(C)CCN(C(=O)Cc1ccc(Cl)c(Cl)c1)c1c(N)n(Cc2ccccc2)c(=O)[nH]c1=O | active
CC1=NNC(=O)/C1=C\c1cn(-c2ccccc2)nc1-c1ccccc1 | inactive
COc1ccc(NC(=S)NC(NC(=O)/C=C/c2ccccc2)C(Cl)(Cl)Cl)cc1 (stereo unspecified) | inactive
CCS(=O)(=O)c1ncc(Cl)c(C(=O)Nc2ccccc2OC)n1 | inactive
Cc1ccc(C=C2C(Cl)=C(Cl)C(Cl)=C2Cl)cc1 | active
COc1ccc(C2CC(c3c(O)cc(C)oc3=O)=NCCS2)c(OC)c1 (stereo unspecified) | inactive
COc1cc(/C=C(/C#N)c2nc3ccccc3[nH]2)ccc1OCC(=O)Nc1ccccc1C | active
COc1ccc2c(c1)[nH]c1c(=O)n(/N=C/C3C(C)C=C(C)CC3C)c(=O)[nH]c12 (stereo unspecified) | inactive
CCOCCCNC(=O)c1ccc2c(c1)N=C(CC)c1cc(Br)ccc1S2 | inactive
CCN(C(=O)CCN1C(=O)c2ccccc2S1(=O)=O)c1ccccc1 | inactive
N#CC(C#N)=C1C=CC=CN1/C(=C\c1ccccc1Cl)C(=O)c1ccccc1 | active
CCc1nnc(NC(=O)c2nc(S(=O)(=O)Cc3ccccc3)ncc2Cl)s1 | inactive
Cc1c(C=O)c(C=O)c(C)n1Cc1ccccc1 | inactive
COc1ccc(-c2ccc3c(c2)S(=O)(=O)c2cccc(C(=O)NCCOc4ccccc4)c2C3=O)cc1OC | inactive
O=C(CCl)N=c1sccn1Cc1ccccc1Cl | inactive
COc1ccc(C=C2C=C(C(C)(C)C)C(=O)C(C(C)(C)C)=C2)cc1OC | active
COc1ccc(C(=O)/C=C/C(=O)N(CC(=O)NC2CCCCC2)Cc2cccs2)c(O)c1 | active
Cc1ccc(NC(=O)CSc2nc3nc(C)c(Br)cc3[nH]2)cc1F | inactive
O=C(c1ccc(COc2ccc3ccccc3c2)o1)N1N=C(C(F)F)CC1(O)C(F)F (stereo unspecified) | inactive
CN(C)C/C=C(\c1ccc(Br)cc1)c1cccnc1 | inactive
COc1ccccc1-c1cn[nH]c1-c1ccc(OCc2ccccc2)cc1O | inactive
Cc1ccc(Sc2c([N+](=O)[O-])c(=O)n(C)c3ccccc23)cc1 | inactive
CC1CC(C)CN(C(=O)c2ccc(-c3ccc([N+](=O)[O-])cc3)o2)C1 (stereo unspecified) | inactive
CC(C)c1cccc(-c2ccc3c(c2)S(=O)(=O)c2cccc(C(=O)NCc4ccccc4Cl)c2C3=O)c1 | inactive
COc1cc(NC(=O)c2cccc(C)c2)ccc1NC(=O)c1cc2ccccc2o1 | inactive
C=CC(=O)Nc1ccc(CN2C(=O)N(c3c(Cl)c(OC)cc(OC)c3Cl)Cc3cnc(NCCCCN(CC)CC)nc32)cc1 | inactive
N#C/C(=C\c1ccc(OCc2ccccc2)cc1)C(=O)Nc1nc2c(s1)CCN(Cc1ccccc1)C2 | inactive
CCOC(=O)c1ccc(-c2ccc(/C=N/NC(=O)CN(c3cccc(C)c3)S(C)(=O)=O)o2)cc1 | inactive
Cc1ccc(S(=O)(=O)c2nnn3c2nc(Nc2cccc(C)c2)c2ccccc23)cc1 | inactive

Sourced from PubChem BioAssay AID449755
